All figures here come from patent US4863899A.

- study_target: EGF receptors on A-431 human epidermoid carcinoma cells (Homo sapiens)
- Construct: A-431 human epidermoid carcinoma cells or human foreskin fibroblasts (HFF); endogenous in cells; host or cells: A-431 human epidermoid carcinoma cells
- assay_notes: Radioreceptor assay, 125I-EGF binding to cells (Example XII)
- condition_label: A-431 cells; read-out: IC50, inhibition of 125I-EGF binding
pIC50: −log10 of the molar value. Positions of bridges follow the written chain, without caps; N, C: chain ends.

>  <substance>
Ac-Cys-His-Ser-Gly-Tyr-Val-Gly-Ala-Arg-Cys-OMe (Ac-CHSGYVGARC-OMe; disulfide 1-10 (inferred)) [Peptide 3]

>  <pIC50>
6.40

$$$$
